target: human EHMT2 913-1193 (Homo sapiens, UniProt Q96KQ7); construct: recombinant purified human EHMT2 913-1193, Viva; purchased Viva; assay: EHMT2 enzyme assay on histone peptide substrate (EHMT2 PEP); type: biochemical; conditions: Table VI; read-out: EHMT2 PEP IC50
Sequence (Q96KQ7 913-1193): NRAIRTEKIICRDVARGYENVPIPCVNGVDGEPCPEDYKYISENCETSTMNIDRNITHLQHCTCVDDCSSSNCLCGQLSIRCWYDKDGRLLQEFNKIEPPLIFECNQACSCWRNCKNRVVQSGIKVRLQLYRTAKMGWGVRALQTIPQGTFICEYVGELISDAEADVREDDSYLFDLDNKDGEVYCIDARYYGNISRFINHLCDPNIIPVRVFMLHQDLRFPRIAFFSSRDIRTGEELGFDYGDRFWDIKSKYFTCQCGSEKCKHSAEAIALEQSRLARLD
pIC50: −log10 of the molar value.
ASSAY READOUT: pIC50

>>> value_observed("COc1cc2c(C3CCN(C)CC3)nc(-c3cn[nH]c3)nc2cc1OCCCN1CCCC1 [Compound 681]")
"5.00 to 6.00"
>>> value_observed("COc1cc2c(C3CCN(C4CCOC4)CC3)cc(C)nc2cc1OCCCN1CCCC1 (stereo not shown) [Compound 756]")
"> 7.00"
>>> value_observed("CNc1cc(C)nc(Nc2ccc(OC)c(OCC(O)CN3CCCC3)c2)n1 (stereo in doubt) [Compound 906]")
"> 7.00"
>>> value_observed("CCc1nc(NC2CCNCC2)ncc1OCC1CN(C(C)C)C1 [Compound 631]")
"< 5.00"
